- assayMethodText: physchem
- assayContext: sgf, pH 1.19
measurementKind: solubility at 2 h (µg/mL)
Note: unit µg/mL is implicit; provide only the numeric part.

Ask: Endpoint output: solubility at 2 h of CCn1ncc2c(Nc3cc(C)[nH]n3)nc([C@H]3CC[C@](OC)(C(=O)N[C@@H](C)c4cnc(-n5cc(F)cn5)cn4)CC3)nc21 [Fumarate crystal form I] . Value?
Result: 204

###

- assayMethodText: in vivo
- assayContext: rat, po, 10 mg/kg
measurementKind: AUC(0-t) (ng·h/mL)
Quick reminder: number only, in ng·h/mL, skip the unit.

Ask: Given the entry CCn1ncc2c(Nc3cc(C)[nH]n3)nc([C@H]3CC[C@](OC)(C(=O)N[C@@H](C)c4cnc(-n5cc(F)cn5)cn4)CC3)nc21 [Free base crystal form III] , report its measured AUC(0-t).
Result: 1250

###

- assayMethodText: physchem
- assayContext: fessif, pH 5
measurementKind: solubility at 0.5 h (µg/mL)
Give a bare numeral; the unit µg/mL is implied.

Ask: Could you share which solubility at 0.5 h value was measured for CCn1ncc2c(Nc3cc(C)[nH]n3)nc([C@H]3CC[C@](OC)(C(=O)N[C@@H](C)c4cnc(-n5cc(F)cn5)cn4)CC3)nc21 [Fumarate crystal form I] ?
Result: 84.2

###

- assayMethodText: in vivo
- assayContext: rat, po, 10 mg/kg
measurementKind: AUC(0-inf) (ng·h/mL)
Entry rule: numbers only, all in ng·h/mL.

Ask: May I ask what AUC(0-inf) has been recorded for CCn1ncc2c(Nc3cc(C)[nH]n3)nc([C@H]3CC[C@](OC)(C(=O)N[C@@H](C)c4cnc(-n5cc(F)cn5)cn4)CC3)nc21 [Free base crystal form III] ?
Result: 1260

###

- assayMethodText: in vivo
- assayContext: rat, po, 10 mg/kg
measurementKind: Cmax

Ask: Which Cmax value is on record for CCn1ncc2c(Nc3cc(C)[nH]n3)nc([C@H]3CC[C@](OC)(C(=O)N[C@@H](C)c4cnc(-n5cc(F)cn5)cn4)CC3)nc21 [Free base crystal form III] ?
Result: 153 ng/mL

###

- assayMethodText: physchem
- assayContext: thf
measurementKind: solubility

Ask: Recorded solubility of CCn1ncc2c(Nc3cc(C)[nH]n3)nc([C@H]3CC[C@](OC)(C(=O)N[C@@H](C)c4cnc(-n5cc(F)cn5)cn4)CC3)nc21 [Free base crystal form I] , please.
Result: > 40 mg/mL

###

- assayMethodText: physchem
- assayContext: sgf, pH 1.19
measurementKind: solubility at 24 h (mg/mL)
Dear colleague, please return just the value in mg/mL, with no unit written.

Ask: Would you kindly share the measured solubility at 24 h for CCn1ncc2c(Nc3cc(C)[nH]n3)nc([C@H]3CC[C@](OC)(C(=O)N[C@@H](C)c4cnc(-n5cc(F)cn5)cn4)CC3)nc21 [Fumarate crystal form I] ?
Result: 0.0781

###

- assayMethodText: physchem
- assayContext: fessif, pH 5
measurementKind: solubility at 24 h (µg/mL)
Value expressed in µg/mL; do not type the unit.

Ask: Please give the measured solubility at 24 h for this compound: CCn1ncc2c(Nc3cc(C)[nH]n3)nc([C@H]3CC[C@](OC)(C(=O)N[C@@H](C)c4cnc(-n5cc(F)cn5)cn4)CC3)nc21 [Fumarate crystal form I]
Result: 20.9

###

- assayMethodText: physchem
- assayContext: tol
measurementKind: solubility

Ask: I am curious: what solubility value has been reported for CCn1ncc2c(Nc3cc(C)[nH]n3)nc([C@H]3CC[C@](OC)(C(=O)N[C@@H](C)c4cnc(-n5cc(F)cn5)cn4)CC3)nc21 [Free base crystal form I] ?
Result: < 600 µg/mL

###

- assayMethodText: physchem
- assayContext: n-buoh
measurementKind: solubility

Ask: Quick check: solubility of CCn1ncc2c(Nc3cc(C)[nH]n3)nc([C@H]3CC[C@](OC)(C(=O)N[C@@H](C)c4cnc(-n5cc(F)cn5)cn4)CC3)nc21 [Free base crystal form I] ?
Result: < 600 µg/mL

###

- assayMethodText: physchem
- assayContext: etoh
measurementKind: solubility

Ask: Name the recorded solubility for CCn1ncc2c(Nc3cc(C)[nH]n3)nc([C@H]3CC[C@](OC)(C(=O)N[C@@H](C)c4cnc(-n5cc(F)cn5)cn4)CC3)nc21 [Free base crystal form I] .
Result: < 600 µg/mL

###

- assayMethodText: in vivo
- assayContext: dog, po, 5 mg/kg
measurementKind: Tmax (h)
Field format: number, assumed h, no unit text.

Ask: I am curious: what Tmax value has been reported for CCn1ncc2c(Nc3cc(C)[nH]n3)nc([C@H]3CC[C@](OC)(C(=O)N[C@@H](C)c4cnc(-n5cc(F)cn5)cn4)CC3)nc21 [Free base crystal form III] ?
Result: 2

###

- assayMethodText: physchem
- assayContext: hept
measurementKind: solubility

Ask: What does the record list as solubility for CCn1ncc2c(Nc3cc(C)[nH]n3)nc([C@H]3CC[C@](OC)(C(=O)N[C@@H](C)c4cnc(-n5cc(F)cn5)cn4)CC3)nc21 [Free base crystal form I] ?
Result: < 600 µg/mL

###

- assayMethodText: physchem
- assayContext: mek
measurementKind: solubility

Ask: Value lookup for solubility; key = CCn1ncc2c(Nc3cc(C)[nH]n3)nc([C@H]3CC[C@](OC)(C(=O)N[C@@H](C)c4cnc(-n5cc(F)cn5)cn4)CC3)nc21 [Free base crystal form I]
Result: 6300 to 7100 µg/mL

###

- assayMethodText: physchem
- assayContext: sgf
measurementKind: solubility at 0.5 h (µg/mL)
Enter your answer as a number in µg/mL; do not include the unit.

Ask: # get_value(readout='solubility at 0.5 h', item= CCn1ncc2c(Nc3cc(C)[nH]n3)nc([C@H]3CC[C@](OC)(C(=O)N[C@@H](C)c4cnc(-n5cc(F)cn5)cn4)CC3)nc21 [Fumarate crystal form I] )
Result: 210

###

- assayMethodText: in vivo
- assayContext: rat, po, 10 mg/kg
measurementKind: half-life (h)
Number in h, nothing else.

Ask: Can you share its half-life? I mean this compound: CCn1ncc2c(Nc3cc(C)[nH]n3)nc([C@H]3CC[C@](OC)(C(=O)N[C@@H](C)c4cnc(-n5cc(F)cn5)cn4)CC3)nc21 [Free base crystal form III]
Result: 3.18

###

- assayMethodText: physchem
- assayContext: 2-me-thf
measurementKind: solubility

Ask: Recorded solubility of CCn1ncc2c(Nc3cc(C)[nH]n3)nc([C@H]3CC[C@](OC)(C(=O)N[C@@H](C)c4cnc(-n5cc(F)cn5)cn4)CC3)nc21 [Free base crystal form I] , please.
Result: 11.1 to 12.5 mg/mL

###

- assayMethodText: physchem
- assayContext: ipa
measurementKind: solubility

Ask: Entry CCn1ncc2c(Nc3cc(C)[nH]n3)nc([C@H]3CC[C@](OC)(C(=O)N[C@@H](C)c4cnc(-n5cc(F)cn5)cn4)CC3)nc21 [Free base crystal form I] has what solubility?
Result: < 600 µg/mL

###

- assayMethodText: physchem
- assayContext: fessif, pH 5
measurementKind: solubility at 2 h

Ask: solubility at 2 h for CCn1ncc2c(Nc3cc(C)[nH]n3)nc([C@H]3CC[C@](OC)(C(=O)N[C@@H](C)c4cnc(-n5cc(F)cn5)cn4)CC3)nc21 [Fumarate crystal form I] ?
Result: 28.5 µg/mL
